- TESTED_TARGET: Cytochrome P450 2D6 (Homo sapiens)
- ASSAY_PROTOCOL: Cytochrome P450 family 2 subfamily D member 6 (CYP2D6) small molecule antagonists: luciferase biochemical (cell-free) qHTS assay (AID 1645840); also: nearly all actives have a fitted effect of over 55% in size
- SETUP_CONDITIONS: P450-Glo CYP2D6 enzyme, luciferin luminescence, 1 h; series mostly up to 57.4 µM
Inconclusive results are not listed. The source made the active and inactive calls. Calls follow the shape of the dose curve; as a rule, active = well fitted inhibition curve with a large enough effect in the repeat runs; inconclusive = weak or mixed curves; inactive = flat fitted curve, though single readings scatter.
Respond only with the outcome that fits, drawn from yes for active, no for inactive

Before answering, review these 3 worked examples.
COc1ccc(-n2nc3c(N4CCCC(C(=O)NCc5cccc(F)c5)C4)nnc(C)c3c2C)cc1 (stereo unspecified)	yes
Cc1ccc(Cn2c(CN3CCC(C(=O)NCCc4ccccc4)CC3)cc3ccccc32)cc1	yes
CC1(C#N)CCN(c2c(C(=O)N3CCC(C(=O)C4CC4)CC3)cnc3ccc(F)cc23)CC1	yes

**Query** Entry NCC1OC(OC2C(N)CC(N)C(OC3OC(CO)C(O)C(N)C3O)C2O)C(N)CC1O (stereo unspecified) : call = ?
**Result** no

**Query** Entry Cc1cccc(NC(c2cccc(Cl)c2)c2ccc3cccnc3c2O)n1 (stereo unspecified) : call = ?
**Result** no

**Query** Entry CCOC(=O)c1ccc(NC(=O)CCn2c(=O)c3cccn3c3cccnc32)cc1 : call = ?
**Result** no

**Query** Entry Cc1ccc(Nc2nc3ccccc3c3nnc(C)n23)c(C)c1 : call = ?
**Result** no

Taken from PubChem BioAssay (NCATS).
